Source: the supplement of paper PMC10567573

B1: TMEM175 (parent)
chain: QTSAFARQPRDELERVRVSCTIIF

- Variants of: B1
- experiment: protein stability index of a GFP-peptide fusion (GPS, HEK-293T) (PSI 1-6); higher = more stable;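 note: lentivirally expressed fusions sorted by FACS into six bins by GFP to DsRed ratio, PSI derived from sequencing read proportions per bin multiplied by bin number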
- details: c terminus: a fixed tail appended
Please respond with reported protein stability index for every item in the list.
The response must contain the number and no unit.

// Input: V18M . Output its protein stability index only. 1.88

Indicate its recorded protein stability index; the variant in question is A6F 1.36

// Input: R17D . Output its protein stability index only. 2.58

State its protein stability index for this variant: V18E 2.31

Identify measured protein stability index associated with F5K 1.34

Indicate its recorded protein stability index; the variant in question is I22K 3.06

Quickly give me recorded protein stability index for F24Q 2.56

Specify reported protein stability index for the variant shown: S19M 2.94

Provide one value: measured protein stability index of R10P 2.87

Check the records and state protein stability index for R15P 2.19

// Input: V18R . Output its protein stability index only. 1.57

// fetch protein stability index given entry T21D 2.72

Could you please provide reported protein stability index for Q1D ? Thanks! 1.63

Supply protein stability index value. Item: R10W 3.68

Give a short answer stating reported protein stability index for E12I . 2.56

Output protein stability index of C20G 1.56
